- ASSAY DETAILS: Tmax in rat at 2.5 mg/kg, iv or 5 mg/kg, po
- Assay type: ADME, organism-based
- EXPERIMENTAL PARAMETERS: in vivo
READOUT NAME: Tmax (min)
Numbers only, in min.

Data request: Recorded Tmax for CC1CCC(NC(=O)NS(=O)(=O)c2ccc(CCNS(=O)(=O)c3ccc(Br)cc3)cc2)CC1 (stereo unspecified) , please?
Data returned: 49.8

----------
- Test system: Rattus norvegicus
- ASSAY DETAILS: AUC in rat at 5 mg/kg, po
- Type: ADME, organism-based, Plasma
- Set-up: dose 5 mg/kg, route oral
- EXPERIMENTAL PARAMETERS: in vivo
READOUT NAME: AUC (ng·h/mL)
Answers are plain numbers, in ng·h/mL.

Data request: Please look up its AUC: CC1CCC(NC(=O)NS(=O)(=O)c2ccc(CCNS(=O)(=O)c3ccc(Br)cc3)cc2)CC1 (stereo unspecified)
Data returned: 10000
